Assay Remarks: Pharmacokinetics of ART in rats in absence and presence of CHR
Assay type: in vivo
Condition Description: male; ART in rat plasma; ART 5 mg/kg intramuscular on day 3, 1 h after 3-day oral CHR (5, 10, 20 mg/kg for 1:1, 1:2, 1:4) or CMC-Na; n = 5, mean ± SD
Measure: half-life (min)

Compound | Measure | Value Reported
C[C@@H]1CC[C@H]2[C@@H](C)C(=O)O[C@@H]3O[C@@]4(C)CC[C@@H]1[C@]32OO4 [ART, Artemisinin] | half-life | 217

* * *

Test system: CYP3A
Assay Remarks: In vitro rat liver microsome experiment, CYP3A (probe MDZ)
Format: in vitro ADME
Condition Description: probe substrate in rat liver microsomes
Measure: Km at 15 min

Compound | Value Reported
Cc1ncc2n1-c1ccc(Cl)cc1C(c1ccccc1F)=NC2 [MDZ, Midazolam, reference compound] | 7.88 µM
